The origin of these recorded values is patent US20230348495A1.

What IC50 was measured for each of the following?
target_under_test: KRAS G12D (Homo sapiens (Human), UniProt P01116, G12D)
Sequence (P01116 other isoform, or with tags, fused parts or gaps G12D (already in the parent)): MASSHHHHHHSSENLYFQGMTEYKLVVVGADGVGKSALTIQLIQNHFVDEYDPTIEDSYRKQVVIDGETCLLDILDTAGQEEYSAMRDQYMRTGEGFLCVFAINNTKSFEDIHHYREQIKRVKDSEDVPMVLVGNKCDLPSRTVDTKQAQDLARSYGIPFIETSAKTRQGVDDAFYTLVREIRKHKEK
experimental_protocol: Inhibitory activity on KRAS G12D nucleotide (GDP-GTP) exchange reaction in vitro (SOS1-dependent, BODIPY FL GDP)
setup_conditions: BODIPY FL GDP-bound KRAS G12D, compound 25° C. 1 hour, then SOS1 and GMPPNP 30 minutes
Your answer should be a plain number; it is taken to be in nM.

Data request: Give the reported value of IC50 for this record: Oc1cc(N2CCc3c(nc(OCC4(CN5CCOCC5)CC4)nc3N3CC4CCC(C3)N4)C2)c2c(I)cccc2c1
Data returned: 0.7

Data request: Give the reported value of IC50 for this record: Oc1cc(N2CCc3c(nc(OCC4(CN5CC[C@@H](F)C5)CC4)nc3N3CC4CCC(C3)N4)C2)c2c(I)cccc2c1
Data returned: 0.9

Data request: Give the reported value of IC50 for this record: C#Cc1cccc2cc(O)cc(C3Cc4nc(OCC5(CN6CCOCC6)CC5)nc(N5CC6CCC(C5)N6)c4CO3)c12 (stereo not shown)
Data returned: 11.3

Data request: Give the reported value of IC50 for this record: CN(C)CC1(COc2nc3c(c(N4CC5CCC(C4)N5)n2)CCN(c2nc(N)cc4cccc(Br)c24)C3)CC1
Data returned: 13

Data request: Give the reported value of IC50 for this record: C#Cc1cccc2cc(N)nc(N3CCc4c(nc(OCC5(CN(C)C)CC5)nc4N4CC5CCC(C4)N5)C3)c12
Data returned: 27.4

Data request: Give the reported value of IC50 for this record: CN(C)CC1(COc2nc3c(c(N4CC5CCC(C4)N5)n2)COC(c2cc(O)cc4cccc(Br)c24)C3)CC1 (stereo not shown)
Data returned: 9.6

Data request: Give the reported value of IC50 for this record: CN(C)CC1(COc2nc3c(c(N4CC5CCC(C4)N5)n2)CCN(c2cc(O)cc4cccc(Br)c24)C3)CC1(C)C (stereo not shown)
Data returned: 11.7

----------
Tested on: KRAS-G12D mutant cell line (A-427)
experimental_protocol: Growth inhibition activity on KRAS-G12D mutant cell line (A-427), CellTiter-Glo 3D
Type: cell-based
setup_conditions: Homo sapiens, 72 h, A-427 cells, 3-day culture with compound, read-out: A427 CTX IC50
// NB: equality with 600 nM counts as false (0); only IC50 strictly below is true (1)

Data request: For this compound, is IC50 lower than 600 nM? CN1C[C@H](F)C[C@H]1COc1nc2c(c(N3CC4CCC(C3)N4)n1)CCN(c1cc(O)cc3cccc(Br)c13)C2
Data returned: false (0)

Data request: For this compound, is IC50 lower than 600 nM? Oc1cc(N2CCc3c(nc(OCC4(CN5CC[C@@H](F)C5)CC4)nc3N3CC4CCC(C3)N4)C2)c2c(I)cccc2c1
Data returned: true (1)

Data request: For this compound, is IC50 lower than 600 nM? Cc1cccc2cc(O)cc(N3CCc4c(nc(OCC5(CN6CCOCC6)CC5)nc4N4CC5CCC(C4)N5)C3)c12
Data returned: true (1)

Data request: For this compound, is IC50 lower than 600 nM? Oc1cc(N2CCc3c(nc(OCC4(CN5CCOCC5)CC4)nc3N3CC4CCC(C3)N4)C2)c2c(I)cccc2c1
Data returned: true (1)

Data request: For this compound, is IC50 lower than 600 nM? Oc1cc(N2CCc3c(nc(OCC4(CN5CC[C@@H](F)C5)CC4)nc3N3CC4CCC(C3)N4)C2)c2c(Br)cccc2c1
Data returned: true (1)

Data request: For this compound, is IC50 lower than 600 nM? CO[C@@H]1C[C@@H](COc2nc3c(c(N4CC5CCC(C4)N5)n2)CCN(c2cc(O)cc4cccc(Br)c24)C3)N(C)C1
Data returned: false (0)

Data request: For this compound, is IC50 lower than 600 nM? CN(C)CC1(COc2nc3c(c(N4CC5CCC(C4)N5)n2)CCN(c2cccc4cccc(Br)c24)C3)CC1(F)F (stereo not shown)
Data returned: false (0)
